For each entry below, report its Vd value.
EXPERIMENTAL PROTOCOL: Pharmacokinetic test in male SD rats, intravenous and intragastric administration, plasma LC-MS/MS
Type: in vivo
EXPERIMENTAL SETUP: rat, intravenous administration, dose 1.1 (1A), 0.69 (3A), 0.716 (8A) mg/kg, read-out: Apparent volume of distribution Vdss
Answers are plain numbers, in L/kg.

Look over these answered cases.
N#Cc1ncc(N2CC3CC3C2C(O)C(F)(F)F)cc1C(F)(F)F (single isomer, unassigned) [Compound 8A] = 2.22
N#Cc1ccc(N2CC3CC3C2C(O)C(F)(F)F)cc1Cl (single isomer, unassigned) [Compound 3A] = 1.83

Consider the record given below.
For N#Cc1ccc(N2CC3CC3C2C(O)C(F)(F)F)cc1C(F)(F)F (single isomer, unassigned) [Compound 1A] , what is its reported Vd?
1.43

----------
EXPERIMENTAL PROTOCOL: Pharmacokinetic test in male SD rats, intravenous and intragastric administration, plasma LC-MS/MS
Type: in vivo
EXPERIMENTAL SETUP: rat, po, intragastric administration, dose 4.92 (1A), 4.2 (3A), 4.59 (8A) mg/kg, read-out: Blood drug concentration Cmax
For each entry below, report its Cmax value.
Give bare numbers, in nM.

// input: 3 molecules below; output: Cmax for each
1. N#Cc1ncc(N2CC3CC3C2C(O)C(F)(F)F)cc1C(F)(F)F (single isomer, unassigned)
2. N#Cc1ccc(N2CC3CC3C2C(O)C(F)(F)F)cc1C(F)(F)F (single isomer, unassigned)
3. N#Cc1ccc(N2CC3CC3C2C(O)C(F)(F)F)cc1Cl (single isomer, unassigned)

[1660, 223, 262]

----------
For each entry below, report its Tmax value.
EXPERIMENTAL PROTOCOL: Pharmacokinetic test in male SD rats, intravenous and intragastric administration, plasma LC-MS/MS
Assay type: in vivo
EXPERIMENTAL SETUP: rat, po, intragastric administration, dose 4.92 (1A), 4.2 (3A), 4.59 (8A) mg/kg, read-out: Peak time Tmax
Numbers only, in h.

N#Cc1ccc(N2CC3CC3C2C(O)C(F)(F)F)cc1C(F)(F)F (single isomer, unassigned) = 4
N#Cc1ccc(N2CC3CC3C2C(O)C(F)(F)F)cc1Cl (single isomer, unassigned) = 3

Consider the record given below.
For N#Cc1ncc(N2CC3CC3C2C(O)C(F)(F)F)cc1C(F)(F)F (single isomer, unassigned) , what is its reported Tmax?
4

----------
STUDY TARGET: UniProt P08684
Sequence (P08684 whole entry): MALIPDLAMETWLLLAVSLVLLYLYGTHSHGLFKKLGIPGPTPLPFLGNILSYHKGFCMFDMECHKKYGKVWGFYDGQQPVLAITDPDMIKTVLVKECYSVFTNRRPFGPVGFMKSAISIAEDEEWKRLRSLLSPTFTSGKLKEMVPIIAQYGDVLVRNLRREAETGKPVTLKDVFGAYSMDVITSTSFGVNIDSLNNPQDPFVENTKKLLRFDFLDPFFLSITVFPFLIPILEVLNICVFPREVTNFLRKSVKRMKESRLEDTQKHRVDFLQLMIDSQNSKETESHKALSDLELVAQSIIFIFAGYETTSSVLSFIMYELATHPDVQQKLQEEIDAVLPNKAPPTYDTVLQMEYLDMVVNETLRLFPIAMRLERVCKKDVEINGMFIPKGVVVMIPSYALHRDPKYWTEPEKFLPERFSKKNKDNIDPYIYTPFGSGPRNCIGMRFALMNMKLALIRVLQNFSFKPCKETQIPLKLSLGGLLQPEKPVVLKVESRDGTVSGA
TEST READOUT: IC50 (µM)
Give bare numbers, in µM.

For N#Cc1ccc(N2CCC[C@@H]2[C@@H](O)C(F)(F)F)cc1C(F)(F)F [VK5211, reference compound] , what is its reported IC50?
44.7

----------
EXPERIMENTAL PROTOCOL: Pharmacokinetic test in male SD rats, intravenous and intragastric administration, plasma LC-MS/MS
Assay type: in vivo
EXPERIMENTAL SETUP: rat, po, intragastric administration, dose 4.92 (1A), 4.2 (3A), 4.59 (8A) mg/kg, read-out: Curve area (0-t) AUC0-last
For each entry below, report its AUC(0-t) value.
Numbers only, in µM·h.

N#Cc1ccc(N2CC3CC3C2C(O)C(F)(F)F)cc1Cl (single isomer, unassigned) = 1.25
N#Cc1ccc(N2CC3CC3C2C(O)C(F)(F)F)cc1C(F)(F)F (single isomer, unassigned) = 1.24

Consider the record given below.
For N#Cc1ncc(N2CC3CC3C2C(O)C(F)(F)F)cc1C(F)(F)F (single isomer, unassigned) , what is its reported AUC(0-t)?
12.7
